- Experimental target: Aromatase (Homo sapiens, UniProt P11511)
- Sequence (P11511 whole entry): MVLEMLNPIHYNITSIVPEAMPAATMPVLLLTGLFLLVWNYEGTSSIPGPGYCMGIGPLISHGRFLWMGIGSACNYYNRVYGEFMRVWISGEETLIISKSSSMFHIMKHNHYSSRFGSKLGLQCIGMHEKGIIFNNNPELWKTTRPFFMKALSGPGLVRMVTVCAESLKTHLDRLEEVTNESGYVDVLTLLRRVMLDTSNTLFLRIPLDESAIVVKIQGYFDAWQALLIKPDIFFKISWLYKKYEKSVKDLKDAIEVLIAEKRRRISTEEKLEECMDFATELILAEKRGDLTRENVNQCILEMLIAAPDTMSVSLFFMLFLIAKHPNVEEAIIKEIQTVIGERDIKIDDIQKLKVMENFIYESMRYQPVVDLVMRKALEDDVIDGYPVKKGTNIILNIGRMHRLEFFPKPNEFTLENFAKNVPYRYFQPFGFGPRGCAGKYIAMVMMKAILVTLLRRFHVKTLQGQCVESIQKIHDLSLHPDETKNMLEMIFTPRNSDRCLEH
- Protocol details: Inhibition of cytochrome P450 19A1
Test readout: pIC50
The meaning of pIC50 here: minus log10 of the concentration in molar units.

Compound: CSC1=C2CCC3C(CC[C@]4(C)C(=O)CCC34)[C@@]2(C)CCC1=O (stereo not given in full)
pIC50: 5.36

get_value(item= C[C@]12CCC(=O)C(SC(F)F)=C1CC[C@@H]1[C@@H]2CC[C@]2(C)C(=O)CC[C@@H]12 , readout=pIC50) returns 5.57

Looking up COCSC1=C2CCC3C(CC[C@]4(C)C(=O)CCC34)[C@@]2(C)CCC1=O (stereo not given in full) , I see its pIC50 listed as 5.00

Sample C[C@]12CCC(=O)C(O)=C1CCC1C2=CC[C@]2(C)C(=O)CCC12 (stereo not given in full) ; pIC50 observed: 6.46

pIC50 reported for this compound COCOC1=C2CCC3C(CC[C@]4(C)C(=O)CCC34)[C@@]2(C)CCC1=O (stereo not given in full) : 5.36
